Target: Ba/F3 cells overexpressing the p210^Bcr-Abl-T315I theramutein (Homo sapiens, UniProt P00519, T315I, cells depend on it)
Construct: fused on or other part: P11274 (Breakpoint cluster region protein)
Assay: phenoresponse-based cellular assay (cell count/viability), Ba/F3 T315I test cells
Set-up: species or system murine
Conditions: read-out: T315I (IC50 activity category, growth inhibition by 50%); Ba/F3 T315I cell line
We begin with a simple list: items and their reported GI50.

The following compounds have reported results that may help.
{"columns": ["COMPOUND", "OBSERVED_VALUE"],
 "data": [
  ["Cc1cc(Nc2cccc(C(F)(F)F)c2)ccc1/C=N/Nc1ncc(F)c(N2CCOCC2)n1", "> 10 µM"],
  ["CC(C(=O)O)c1ccc(Nc2ccc(/C=N/Nc3ncc(F)c(N4CCOCC4)n3)nc2)cc1 (stereo not drawn)", "> 10 µM"],
  ["O=C(Nc1cccc(C(F)(F)F)c1)c1ccc(/C=N/Nc2ncc(F)c(N3CCOCC3)n2)nc1", "< 1 µM"]
]}

Input: Fill in: GI50 of `Fc1cnc(N/N=C/c2ccc(-c3cccc(C(F)(F)F)c3)cn2)nc1N1CCOCC1` is ___
Output: < 1 µM

Input: Fill in: GI50 of `Fc1cnc(N/N=C/c2ccccn2)nc1N1CCOCC1` is ___
Output: < 1 µM
